For each of the molecules below, state its pEC50.
Test system: ER-alpha MCF7
Test: ER-alpha MCF7 HCS EC50; stated as measured by in vitro cell proliferation assays of Examples 902 and 903
Type: cell-based
Details: Homo sapiens, MCF7, MCF7 cells; Table 2
pEC50 is defined as minus the log10 of a concentration measured in mol/L.

For `C[C@@H]1Cc2c([nH]c3cccc(F)c23)[C@@H](c2c(F)cc(NC3CN(CCCF)C3)cc2F)N1C[C@](C)(F)CO` , what is its reported pEC50?
9.96

What about `C[C@H]1Cc2c([nH]c3ccc(F)cc23)[C@H](c2c(F)cc(OCCN3CC(CF)C3)cc2F)N1CC(C)(C)F` ?
7.46

What about `C[C@@H]1Cc2c([nH]c3ccccc23)[C@H](c2ccc(OCCN3CC(CF)C3)c(F)c2)N1CC(C)(C)F` ?
8.22

What about `C[C@@H]1Cc2c([nH]c3ccccc23)[C@@H](c2ccc(C(=O)C3CN(CCCF)C3)cc2)N1CC(C)(C)F` ?
9.40

What about CC(CN1C(C)Cc2c([nH]c3ccccc23)C1c1c(F)cc(OC2CN(CCCF)C2)cc1F)C(=O)O (stereo not shown) ?
7.48

What about `C[C@@H]1Cc2c([nH]c3ccccc23)[C@@H](c2c(F)cc(OCCN3CC(CF)C3)cc2F)N1C[C@@H](O)CO` ?
8.10

What about `C[C@@H]1Cc2c([nH]c3ccccc23)[C@@H](c2c(F)cc(OCCN3CC(CF)C3)cc2F)N1CC1(CO)CC1` ?
8.70
